Origin of measurements: a melting point compilation (Tetko et al.; mined from patent text by program, amines drawn as free bases though some values may be those of a salt)

Form field: melting point (one value per entry).

Some solved entries appear below for comparison.
compound: CCc1cc2c(Sc3ccccn3)ncnc2s1
test.result: 76.5 to 79 °C
//
compound: CN(Cc1ccc(NC(=O)C2=Cc3cc(-c4ccc5c(c4)OCO5)ccc3S(=O)(=O)CC2)cc1)C1CCC(=O)CC1
test.result: 219 to 223 °C

Q: # lookup: melting point of `O=C(c1ccco1)c1cnn2c1NCCC2`
A: 138 to 139 °C

Q: # lookup: melting point of `COc1cccc2[nH]cc(/C(C#N)=C/c3cccnc3)c12`
A: 177 °C

Q: # lookup: melting point of `Cn1nc(-c2cccc(Cl)c2)cc1C(=O)O`
A: 164 to 167 °C

Q: # lookup: melting point of `O=[N+]([O-])c1ccc(C=CC=CC=CC=Cc2ccc([N+](=O)[O-])cc2)cc1`
A: 238 to 240 °C

Q: # lookup: melting point of `CN1C(=O)CC[C@]2(C)c3ccc(-c4cccc(F)c4F)cc3CC[C@@H]12`
A: 147 to 148 °C

Q: # lookup: melting point of O=C(O)c1c(Cc2cc3c(cc2Cl)OCO3)c(-c2cccs2)nn1CC1CCCC(C(=O)O)C1 (stereo not given)
A: > 260 °C

Q: # lookup: melting point of `CCNC(=O)c1c([Si](C)(C)C)ccc(Cl)c1Cl`
A: 96 to 98 °C

Q: # lookup: melting point of `COCc1nc2c(C(=O)c3cccnc3Oc3cccc(Cl)c3)ccc(OC)c2[nH]1`
A: 181 to 183 °C
